Experiment: yeast growth modulation, basal conditions, primary screen, YJM789 clinical isolate, OD600, 24 h (AID 1089);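 further: growth of clinical yeast isolate S. cerevisiae YJM 789 seeded 1000 cells per well; test concentration not given here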
Conditions: S. cerevisiae YJM789 growth, higher = more signal, called active from +8 up or from −8 down
// map z-score onto a label; ranges c1: < -0.9; c2: ≥ -0.9 and < 0.06; c3: ≥ 0.06

molecule="C=CCC(OC(C)=O)[C@@H]1[C@@H](N(Cc2cccc3ccccc23)C(=O)c2cccc3ccccc23)c2cc(OCCCO)ccc2N1C(=O)c1ccc2ccccc2n1 (stereo partly specified)" class_assignment=c1
molecule=[N-]=[N+]=NCc1ccccc1[C@H]1OC(c2ccc(OCCCO)cc2)=N[C@@]1(CCS(=O)(=O)c1ccccc1)C(=O)N1CCOCC1 class_assignment=c2
molecule=C=CC[C@]1(C(=O)N2CCOCC2)N=C(c2ccc(OCCCO)cc2)O[C@H]1c1ccccc1 class_assignment=c1
molecule=O=C1C=CC(=O)[C@@H]2CC(COc3ccccc3)=C3[C@@H](CCc4ccccc4)OB(O)C[C@@H]3[C@H]12 class_assignment=c3
molecule=CCOC(=O)C1=C[C@@H](C(C)C)N(S(=O)(=O)c2ccc(C)cc2)[C@H]1c1ccc(C(C)C)cc1 class_assignment=c3
molecule=C=C[C@H](C)[C@@H](O)c1ccc(O)c2ccccc12 class_assignment=c1
molecule="CN1C(=O)C2C(C1=O)C1C=C(CCCO)C2C(c2cccs2)N1C (stereo unspecified)" class_assignment=c2
molecule="CS(=O)(=O)CCOC(=O)C1=CC(c2ccc(CO)cc2)=CC(C2CC2)N(Cc2cc3c(cc2Br)OCO3)C=C1C(=O)OCCS(C)(=O)=O (stereo unspecified)" class_assignment=c1
molecule=COCCOC(=O)N1C(=O)[C@@]2(c3cc(C#CCCO)ccc31)[C@H](c1ccc(O)cc1)N1[C@H](c3ccccc3)[C@H](c3ccccc3)OC(=O)[C@H]1[C@@H]2C(N)=O class_assignment=c3
molecule="CCN(CC)c1ccc(N2CC=CC34O[C@@H]5/C=C\\CCCOC(=O)C5[C@H]3C(=O)N(C(CO)C(C)C)[C@@H]4C2=O)cc1 (stereo partly specified)" class_assignment=c3
molecule="COC(=O)c1ccc(C23CC2(C(NP(=O)(c2ccccc2)c2ccccc2)c2ccccc2)C3)cc1 (stereo unspecified)" class_assignment=c1
molecule=CCCCC=C[C@@H](NC(=O)c1cccs1)c1ccccc1 class_assignment=c3
molecule=Cc1ccc(S[C@]2(C(=O)NCCN3CCOCC3)CC(=O)N(Cc3cc(C(F)(F)F)cc(C(F)(F)F)c3)[C@@H]2c2ccc(CO)cc2I)cc1 class_assignment=c1
molecule=Cc1ccc(S[C@]2(C(=O)NCC(C)C)CC(=O)N(Cc3ccccc3Cl)[C@@H]2c2ccc(CO)cc2)cc1 class_assignment=c2
molecule=C=CC(=C)C1=CCO[C@@H]1[C@H]1CCCN1S(=O)(=O)c1ccccc1[N+](=O)[O-] class_assignment=c2

These entries and their values trace back to PubChem BioAssay.
